Test system: P388 leukemia ip, CD2F1 mice, survival T/C
Test: NCI In Vivo Anticancer Drug Screen. Data for tumor model P388 Leukemia (intraperitoneal) in CD2F1 (CDF1) mice
Details: endpoint: median survival time; dose: 50.0 mg/kg/injection; schedule: Q01DX009 (ip); vehicle: saline with Tween-80
Method: The antitumor activity of compounds was measured in mice bearing transplantable tumors. Survival or tumor size were measured and the results are expressed as the measurement made in the treated group (T) divided by the measurement made in the vehicle treated control group (C). The tumor model used in this assay is P388 Leukemia (intraperitoneal) in CD2F1 (CDF1) mice
Inconclusive results and toxic doses are left out. Rule for the calls: active = survival T/C of 150% or more; inactive = T/C below 125% in these data.
Possible outcomes: active, inactive

- compound: "O=[N+]([O-])c1cn[n+]([O-])c2ccccc12"
  system: "P388 leukemia ip, CD2F1 mice, survival T/C"
  category: "inactive"
- compound: "Cc1ccn2c(C(C)O)nnc2c1 (stereo not given)"
  system: "P388 leukemia ip, CD2F1 mice, survival T/C"
  category: "inactive"
- compound: "CCOC(=O)N1CCN(CCCCCCOc2ccc(C3CCCCC3)cc2)CC1"
  system: "P388 leukemia ip, CD2F1 mice, survival T/C"
  category: "inactive"
- compound: "O=C(N=C(N=C(c1ccccc1)N1CCOCC1)c1ccccc1)c1ccccc1"
  system: "P388 leukemia ip, CD2F1 mice, survival T/C"
  category: "inactive"
- compound: "O=C1C(=O)c2ccccc2C(O)=C1CCCc1ccc(C2CCCCCC2)cc1"
  system: "P388 leukemia ip, CD2F1 mice, survival T/C"
  category: "inactive"
- compound: "CCCCCCC(=O)CC(SCC)c1c(Cl)cccc1Cl (stereo not given)"
  system: "P388 leukemia ip, CD2F1 mice, survival T/C"
  category: "inactive"
- compound: "C#CCOc1ccc(C)cc1"
  system: "P388 leukemia ip, CD2F1 mice, survival T/C"
  category: "inactive"
- compound: "Nc1nc(=S)c2ncn(C3OC(COC(=O)c4ccccc4)C(OC(=O)c4ccccc4)C3OC(=O)c3ccccc3)c2[nH]1 (stereo not given)"
  system: "P388 leukemia ip, CD2F1 mice, survival T/C"
  category: "active"
- compound: "O=[N+]([O-])c1cccc(C(O)(C(F)(F)F)C(F)(F)F)c1"
  system: "P388 leukemia ip, CD2F1 mice, survival T/C"
  category: "inactive"
- compound: "CC1(C)OC(=O)C(CCc2ccncc2)(CCc2ccncc2)C(=O)O1"
  system: "P388 leukemia ip, CD2F1 mice, survival T/C"
  category: "inactive"

----------
Test system: P388 leukemia ip, CD2F1 mice, survival T/C
Assay: NCI In Vivo Anticancer Drug Screen. Data for tumor model P388 Leukemia (intraperitoneal) in CD2F1 (CDF1) mice
Conditions: endpoint: median survival time; dose: 12.5 mg/kg/injection; schedule: Q01DX009 (ip); vehicle: Klucel (hydroxypropylcellulose) (HPC); higher = longer survival
Inconclusive results and toxic doses are left out.
measured-parameter: T/C

- compound: "ClCc1ccc(Oc2ccc(CCl)cc2)cc1"
  measured-parameter: "T/C"
  experimental-result: "120 % of control"
- compound: "CP1(=S)C=C(NC2CCCCC2)CC1 (stereo not drawn)"
  measured-parameter: "T/C"
  experimental-result: "99 % of control"
- compound: "CC(C)(C)OC(=O)NC(Cc1ccccc1)C(=O)O (stereo not drawn)"
  measured-parameter: "T/C"
  experimental-result: "107 % of control"

----------
List of T/C values.
Test system: P388 leukemia ip, CD2F1 mice, survival T/C
Assay: NCI In Vivo Anticancer Drug Screen. Data for tumor model P388 Leukemia (intraperitoneal) in CD2F1 (CDF1) mice
Settings: endpoint: median survival time; dose: 100.0 mg/kg/injection; schedule: Q04DX002 (ip); vehicle: saline with Tween-80; higher = longer survival
Toxic doses and inconclusive results are not listed.

- compound: "CC1C(=O)C23CC1CCC2C12COC(=O)C1C(C)(C)C(O)CC2OC3=O (stereo not given)"
  T/C: "93 % of control"
- compound: "Cc1cc(Cl)ccc1NC(=O)C(=O)C(C#N)c1c(Cl)cccc1Cl (stereo not given)"
  T/C: "101 % of control"
- compound: "CCCn1c(C)nc2c(N)cc(C(F)(F)F)cc21"
  T/C: "105 % of control"
- compound: "Nc1ncnc2c1CCc1ccccc1-2"
  T/C: "107 % of control"
- compound: "CCC/C(=N\\NC(N)=Nc1ccc(Cl)cc1)c1ccc(Cl)cc1"
  T/C: "104 % of control"
- compound: "CCn1cc(C(=O)O)c(=O)c2ccc(C)nc21 (tested in a mixture with another compound)"
  T/C: "99 % of control"
- compound: "CSC1SC(C#N)=C(N)C1[n+]1ccccc1 (stereo not given)"
  T/C: "104 % of control"
- compound: "COC(CCC1N=C1c1ccccc1)OC (stereo not given)"
  T/C: "105 % of control"
- compound: "O=C(OC1CC2CCC(C1)S2)c1ccco1 (stereo not given)"
  T/C: "109 % of control"
- compound: "O=C1NNC(c2ccccc2)=Nc2ccccc21"
  T/C: "96 % of control"
- compound: "COC(=O)C/C(C)=N/SC(c1ccccc1)(c1ccccc1)c1ccccc1"
  T/C: "95 % of control"
- compound: "CCCC(=O)Oc1c(OC(=O)CCC)c(OC(=O)CCC)c(OC(=O)CCC)c(OC(=O)CCC)c1OC(=O)CCC"
  T/C: "95 % of control"
- compound: "O=C1C(C(=NCCCN2CCOCC2)c2ccccc2)=C(O)c2ccccc21"
  T/C: "109 % of control"
- compound: "CC1(Cc2ccccc2)N=C1c1ccccc1 (stereo not given)"
  T/C: "106 % of control"
- compound: "CCC1(CC)SC(C)(C)N(C=O)C1C(=O)O (stereo not given)"
  T/C: "99 % of control"

----------
List of T/C values.
Test system: P388 leukemia ip, CD2F1 mice, survival T/C
Assay: NCI In Vivo Anticancer Drug Screen. Data for tumor model P388 Leukemia (intraperitoneal) in CD2F1 (CDF1) mice
Settings: endpoint: median survival time; dose: 100.0 mg/kg/injection; schedule: Q01DX009 (ip); vehicle: Klucel (hydroxypropylcellulose) (HPC); higher = longer survival
Toxic doses and inconclusive results are not listed.
measured-parameter: T/C

- mol-smiles: "CC(C)(Oc1ccc(-c2cccc3ccccc23)cc1)C(=O)O"
  measured-parameter: "T/C"
  experimental-result: "111 % of control"
- mol-smiles: "CCN(CC)Cc1c(C)[nH]c2cc(N(C)C)ccc2c1=O"
  measured-parameter: "T/C"
  experimental-result: "97 % of control"
- mol-smiles: "Cn1c(-c2ccccc2)c2c(c1-c1ccccc1)C(=O)c1c(c(-c3ccccc3)n(C)c1-c1ccccc1)C2=O"
  measured-parameter: "T/C"
  experimental-result: "92 % of control"
- mol-smiles: "O=C(OC1CSC=CSC1)c1ccccc1"
  measured-parameter: "T/C"
  experimental-result: "109 % of control"

----------
System: P388 leukemia ip, CD2F1 mice, survival T/C
Assay: NCI In Vivo Anticancer Drug Screen. Data for tumor model P388 Leukemia (intraperitoneal) in CD2F1 (CDF1) mice
Conditions: endpoint: median survival time; dose: 200.0 mg/kg/injection; schedule: Q01DX005 (ip); vehicle: saline with Tween-80; higher = longer survival
Inconclusive results and toxic doses are left out.

- molecule: "CCOC(=O)N1C=C(C(=O)OC)C(c2ccccc2)C(C(=O)OC)=C1"
  T/C: "97 % of control"
- molecule: "COCCCNC(=O)c1nc2ccccc2c(=O)n1NC(=O)Cc1ccccc1"
  T/C: "95 % of control"
- molecule: "COC(=O)/C=C\\C1(CC(C)C)N=C(c2ccccc2)OC1=O (centres undefined)"
  T/C: "104 % of control"
- molecule: "COc1cc2c(cc1C(C)c1ccccc1)OCO2 (centres undefined)"
  T/C: "111 % of control"
- molecule: "CCN(CC)CCNc1ccc([N+](=O)[O-])c2sc3cc(Cl)ccc3c(=O)c12"
  T/C: "102 % of control"
- molecule: "COc1ccc(/C=C/c2nnc(N)o2)cc1"
  T/C: "105 % of control"
- molecule: "CCCC1C(CC)C=C(CC)C(O)C1(CC)CO (centres undefined)"
  T/C: "97 % of control"
- molecule: "S=C(S)NCCCn1ccnc1"
  T/C: "110 % of control"
- molecule: "CCOC(=O)N1CCc2cc3c(cc2C1Cc1ccc(OC)c(OC)c1COC(C)=O)OCO3 (centres undefined)"
  T/C: "89 % of control"
- molecule: "CC1C2c3ccccc3C(c3ccccc32)C1CO (centres undefined)"
  T/C: "90 % of control"
- molecule: "CCc1ccc2c(-c3ccccc3)c3ccccc3c(-c3ccccc3)c2c1"
  T/C: "88 % of control"
- molecule: "CCOC(=O)C1NC(=O)C(C(=O)OCC)NC1=O (centres undefined)"
  T/C: "93 % of control"
- molecule: "C/C(=N\\NC(=S)N1CCN(c2ccccn2)CC1)c1cccc2cccnc12"
  T/C: "110 % of control"
- molecule: "CC(C)CCN(CCC(C)C)CC(O)c1cc2c(c3ccccc13)CCCC2 (centres undefined)"
  T/C: "108 % of control"
- molecule: "CC1(C)CCC2(C)N(c3ccccc3)C(=O)ON12 (centres undefined)"
  T/C: "99 % of control"
- molecule: "O=C(CCN1CCCCC1)Nc1ccc(F)cc1F"
  T/C: "100 % of control"
- molecule: "CCc1nc(N)nc(N)c1-c1ccc2c(c1)nnn2C1CCCCC1"
  T/C: "87 % of control"
- molecule: "Cc1cc2nc(=O)cc(CCl)n2c(=O)n1C(=O)C(O)C(O)C(O)CO (centres undefined)"
  T/C: "113 % of control"
- molecule: "CCCCCNC(=O)C(O)C(O)C(=O)NCCCCC (centres undefined)"
  T/C: "90 % of control"
